target-entity: BRM (Homo sapiens)
Sequence (P51531 whole entry): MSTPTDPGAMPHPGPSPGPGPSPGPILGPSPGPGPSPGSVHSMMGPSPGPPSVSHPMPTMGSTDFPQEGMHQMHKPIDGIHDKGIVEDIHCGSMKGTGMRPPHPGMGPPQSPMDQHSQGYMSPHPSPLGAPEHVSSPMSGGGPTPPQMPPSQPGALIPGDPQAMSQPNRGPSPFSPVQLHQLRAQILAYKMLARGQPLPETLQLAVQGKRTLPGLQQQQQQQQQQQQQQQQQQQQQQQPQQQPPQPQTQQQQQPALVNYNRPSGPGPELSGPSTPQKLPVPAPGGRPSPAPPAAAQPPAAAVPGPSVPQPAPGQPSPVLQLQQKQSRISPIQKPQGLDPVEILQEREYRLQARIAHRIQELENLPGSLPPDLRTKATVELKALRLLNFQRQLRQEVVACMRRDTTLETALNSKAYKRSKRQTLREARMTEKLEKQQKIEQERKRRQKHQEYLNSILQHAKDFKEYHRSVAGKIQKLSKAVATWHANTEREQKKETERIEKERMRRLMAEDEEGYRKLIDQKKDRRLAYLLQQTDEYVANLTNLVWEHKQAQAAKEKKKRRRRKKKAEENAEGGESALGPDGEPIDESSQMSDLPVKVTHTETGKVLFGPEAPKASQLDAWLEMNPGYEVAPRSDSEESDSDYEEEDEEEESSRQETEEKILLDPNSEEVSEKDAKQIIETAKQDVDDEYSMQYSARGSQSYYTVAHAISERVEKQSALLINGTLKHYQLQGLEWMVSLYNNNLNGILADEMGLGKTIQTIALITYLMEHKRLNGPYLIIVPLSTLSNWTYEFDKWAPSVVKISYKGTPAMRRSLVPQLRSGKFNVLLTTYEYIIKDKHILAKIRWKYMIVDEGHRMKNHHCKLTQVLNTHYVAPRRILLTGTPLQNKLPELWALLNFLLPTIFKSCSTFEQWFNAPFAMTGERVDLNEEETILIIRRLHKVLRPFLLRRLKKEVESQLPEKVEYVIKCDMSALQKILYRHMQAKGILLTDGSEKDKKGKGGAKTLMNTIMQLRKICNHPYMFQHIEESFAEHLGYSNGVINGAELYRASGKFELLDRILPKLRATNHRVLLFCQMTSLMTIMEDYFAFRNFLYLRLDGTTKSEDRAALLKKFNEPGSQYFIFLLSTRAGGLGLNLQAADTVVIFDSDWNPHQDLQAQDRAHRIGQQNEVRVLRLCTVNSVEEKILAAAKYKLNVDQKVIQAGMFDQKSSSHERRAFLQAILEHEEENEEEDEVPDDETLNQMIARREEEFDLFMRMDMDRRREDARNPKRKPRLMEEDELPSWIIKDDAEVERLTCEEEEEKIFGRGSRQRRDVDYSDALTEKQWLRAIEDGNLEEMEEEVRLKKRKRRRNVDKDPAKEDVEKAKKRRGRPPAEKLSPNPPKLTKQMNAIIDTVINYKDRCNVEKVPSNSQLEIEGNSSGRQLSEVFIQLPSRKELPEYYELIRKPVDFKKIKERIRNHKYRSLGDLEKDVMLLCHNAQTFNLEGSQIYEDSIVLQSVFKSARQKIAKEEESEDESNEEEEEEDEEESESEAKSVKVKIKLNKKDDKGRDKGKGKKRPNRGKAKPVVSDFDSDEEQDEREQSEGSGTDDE
test-name: ATPase catalytic activity assay (ADP-Glo), BRM
stated-conditions: BRM ATPase: IC50 (uM), 30 nM BRM, 400 μM ATP
Measured IC50, listed per entry for reference.

1. COc1cncc(-c2nc3cc(CNC(=O)c4ccc5c(c4)[C@](C)(C#N)COC5)ncc3s2)n1 [Compound 344] : 0.1 to 0.5 µM
2. C[C@@]1(CO)CCc2ccc(C(=O)NCc3cc4nc(-c5ccccc5)ccc4cn3)cc21 [Compound 90] : > 1 µM
3. COC1CCN(c2nccc(-c3ccc4cnc(CNC(=O)c5ccc6c(c5)[C@](C)(C#N)COC6)cc4n3)n2)C1 (some centres unmarked) [Compound 422] : < 0.1 µM
4. CO[C@H]1CCN(c2nccc(-c3ccc4cnc(CNC(=O)c5ccc6c(c5)[C@](C)(C#N)COC6)cc4n3)n2)C1 [Compound 339] : < 0.1 µM

Query :: Can you look up the measured IC50 of COC1(c2cccc(-c3ccc4cnc(CNC(=O)c5ccc6c(c5)[C@](C)(C#N)COC6)cc4n3)n2)COC1 [Compound 419] for me?
Result :: 0.1 to 0.5 µM

Query :: Can you look up the measured IC50 of C[C@@]1(C#N)COCc2ccc(C(=O)NCc3cc4nc(-c5ccnc(C6CCC6)n5)ccc4cn3)cc21 [Compound 420] for me?
Result :: < 0.1 µM

Query :: Can you look up the measured IC50 of COc1cc(C(C)(C)C)ccc1-c1ccc2cnc(CNC(=O)c3ccc4c(c3)[C@](C)(C#N)COC4)cc2n1 [Compound 148] for me?
Result :: 0.1 to 0.5 µM

Query :: Can you look up the measured IC50 of C[C@@]1(C#N)COCc2ccc(C(=O)NCc3cc4nc(-c5cccc(C(=O)N6CCC6)c5)ccc4cn3)cc21 [Compound 484] for me?
Result :: 0.1 to 0.5 µM

###

target-entity: BRG-1 (Homo sapiens, UniProt P51532)
Sequence (P51532 whole entry): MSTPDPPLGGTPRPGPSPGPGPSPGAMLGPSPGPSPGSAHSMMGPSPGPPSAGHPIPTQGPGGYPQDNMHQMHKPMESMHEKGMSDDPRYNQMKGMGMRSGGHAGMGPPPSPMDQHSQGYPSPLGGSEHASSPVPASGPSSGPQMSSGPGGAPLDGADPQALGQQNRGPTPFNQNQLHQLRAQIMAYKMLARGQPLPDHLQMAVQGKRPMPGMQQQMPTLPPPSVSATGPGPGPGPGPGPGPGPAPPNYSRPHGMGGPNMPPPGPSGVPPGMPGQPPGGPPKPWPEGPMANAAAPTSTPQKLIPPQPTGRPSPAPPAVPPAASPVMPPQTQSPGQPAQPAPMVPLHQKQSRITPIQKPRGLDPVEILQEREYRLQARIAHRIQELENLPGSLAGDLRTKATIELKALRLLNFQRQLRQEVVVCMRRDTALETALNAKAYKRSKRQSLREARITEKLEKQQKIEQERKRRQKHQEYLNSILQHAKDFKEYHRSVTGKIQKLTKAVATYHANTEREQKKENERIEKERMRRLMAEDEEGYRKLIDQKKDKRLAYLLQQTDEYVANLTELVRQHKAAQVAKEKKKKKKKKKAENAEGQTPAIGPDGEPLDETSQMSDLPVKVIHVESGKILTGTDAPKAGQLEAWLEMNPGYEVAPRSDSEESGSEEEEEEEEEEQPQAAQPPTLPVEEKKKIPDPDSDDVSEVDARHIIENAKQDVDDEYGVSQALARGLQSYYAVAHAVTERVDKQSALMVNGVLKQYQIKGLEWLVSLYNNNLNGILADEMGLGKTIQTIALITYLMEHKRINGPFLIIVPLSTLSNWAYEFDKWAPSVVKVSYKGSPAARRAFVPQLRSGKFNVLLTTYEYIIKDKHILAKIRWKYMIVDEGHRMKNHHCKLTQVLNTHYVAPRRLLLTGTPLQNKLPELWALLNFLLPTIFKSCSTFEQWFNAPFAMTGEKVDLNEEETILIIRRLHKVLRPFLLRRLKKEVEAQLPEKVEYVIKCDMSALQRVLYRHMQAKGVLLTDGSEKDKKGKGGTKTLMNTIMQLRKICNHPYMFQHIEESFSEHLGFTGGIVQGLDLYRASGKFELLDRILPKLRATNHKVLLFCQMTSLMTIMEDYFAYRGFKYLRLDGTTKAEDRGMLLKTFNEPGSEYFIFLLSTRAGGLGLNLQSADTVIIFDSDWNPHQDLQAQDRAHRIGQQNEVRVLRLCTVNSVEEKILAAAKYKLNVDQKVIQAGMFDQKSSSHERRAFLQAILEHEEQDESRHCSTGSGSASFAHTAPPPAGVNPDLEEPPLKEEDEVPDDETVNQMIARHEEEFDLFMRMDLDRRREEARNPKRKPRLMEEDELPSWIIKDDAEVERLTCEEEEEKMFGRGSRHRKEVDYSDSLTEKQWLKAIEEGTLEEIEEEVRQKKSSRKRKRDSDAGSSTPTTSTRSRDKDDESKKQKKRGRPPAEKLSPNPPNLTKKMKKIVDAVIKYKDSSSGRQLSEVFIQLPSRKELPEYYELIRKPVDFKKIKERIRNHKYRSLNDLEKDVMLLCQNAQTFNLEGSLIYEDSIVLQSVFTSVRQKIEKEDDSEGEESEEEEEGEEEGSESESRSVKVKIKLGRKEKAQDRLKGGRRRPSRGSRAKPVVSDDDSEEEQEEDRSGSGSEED
test-name: ATPase catalytic activity assay (ADP-Glo), BRG-1
Measured IC50, listed per entry for reference.

Worked examples, 4 compounds total:
1. COc1cccc(-c2ccc3cnc(CNC(=O)c4ccc5c(c4)[C@](C)(C#N)COC5)cc3n2)n1 : 100 to 500 nM
2. C[C@@]1(C#N)COCc2ccc(C(=O)NCc3cc4nn(-c5cccc(N6CCC6)n5)cc4cn3)cc21 : > 1000 nM
3. CO[C@H]1CCN(c2nccc(-c3ccc4cnc(CNC(=O)c5ccc6c(c5)[C@](C)(C#N)COC6)cc4n3)n2)C1 : 100 to 500 nM
4. C[C@@]1(C#N)COCc2ccc(C(=O)NCc3cc(CCc4ccccc4)ccn3)cc21 : > 1000 nM

Query :: Entry C[C@@]1(C#N)COCc2ccc(C(=O)NCc3cc4nc(-c5ccccc5)ccc4cn3)cc21 , system BRG-1 (Homo sapiens, UniProt P51532): what IC50 was measured?
Result :: > 1000 nM

###

target-entity: BRG-1 (Homo sapiens, UniProt P51532)
test-name: ATPase catalytic activity assay (ADP-Glo), BRG-1
pIC50: −log10 of the molar value.
Measured pIC50, listed per entry for reference.

1) C[C@@]1(C#N)COCc2ccc(C(=O)NCc3cc4nc(-c5cccc(N6CCOCC6)n5)ccc4cn3)cc21 : > 7.00

Query :: Can you look up the measured pIC50 of C[C@@]1(C#N)COCc2ccc(C(=O)NCc3cc(N4CCc5ccccc5C4)cnn3)cc21 for me?
Result :: 6.00 to 6.30

Query :: Can you look up the measured pIC50 of C[C@@]1(C#N)COCc2ccc(C(=O)NCc3cc(N4CCc5ccccc5C4)ccn3)cc21 for me?
Result :: 6.00 to 6.30

Query :: Can you look up the measured pIC50 of C[C@@]1(CO)COCc2ccc(C(=O)NCc3cc4nc(-c5ccccc5)ccc4cn3)cc21 for me?
Result :: < 6.00

Query :: Can you look up the measured pIC50 of C[C@@]1(C#N)CCNc2ccc(C(=O)NCc3cc4nc(-c5ccccc5)sc4cn3)cc21 for me?
Result :: < 6.00

Query :: Can you look up the measured pIC50 of CN(C)c1cncc(-c2ccc3cnc(CNC(=O)c4ccc5c(c4)[C@](C)(C#N)COC5)cc3n2)n1 for me?
Result :: 6.30 to 7.00

###

target-entity: BRG-1 (Homo sapiens)
test-name: ATPase catalytic activity assay (ADP-Glo), BRG-1
stated-conditions: 1 h, read-out: BRG1 Max % Inhibition, ADP-Glo, 30 nM BRG-1, 400 μM ATP
property: Emax (%)

Worked examples, 4 molecules total:
1) CO[C@@H]1CCN(c2cncc(-c3ccc4cnc(CNC(=O)c5ccc6c(c5)[C@](C)(C#N)COC6)cc4c3)n2)C1 [Compound 366] : 99
2) Cn1ccc2c(F)cc(-c3ccc4cnc(CNC(=O)c5ccc6c(c5)[C@](C)(C#N)COC6)cc4n3)cc2c1=O [Compound 434] : 92
3) COc1nccc(-c2ccc3cnc(CNC(=O)c4ccc5c(c4)[C@](C)(C#N)COC5)cc3n2)c1F [Compound 432] : 88
4) C[C@@]1(C#N)COc2ccc(C(=O)NCc3cc4nc(-c5ccccc5)sc4cn3)cc21 [Compound 117] : 27

1 = C[C@@]1(C#N)COCc2ccc(C(=O)NCc3cc4nc(-n5cc(F)c(N6CCC6)n5)ccc4cn3)cc21 [Compound 425]
2 = C[C@@]1(C#N)COCc2ccc(C(=O)NCc3cc4nc(N5CCCN(C6CC6)C5=O)ccc4cn3)cc21 [Compound 315]
Query :: When the recorded Emax values are compared, which is smaller: that of 1 or that of 2 ? Return value: the label identifying the chosen record.
Result :: 2

###

target-entity: BRG-1 (Homo sapiens, UniProt P51532)
test-name: ATPase catalytic activity assay (ADP-Glo), BRG-1
property: IC50

Query :: Can you look up the measured IC50 of COc1nn([C@H]2C[C@H](F)C2)cc1-c1ccc2cnc(CNC(=O)c3ccc4c(c3)[C@](C)(C#N)COC4)cc2n1 for me?
Result :: 100 to 500 nM

Query :: Can you look up the measured IC50 of C[C@@]1(C#N)COCc2ccc(C(=O)NCc3cc4nc(-c5ccccn5)ccc4cn3)cc21 for me?
Result :: > 1000 nM

Query :: Can you look up the measured IC50 of C[C@@H](NC(=O)c1ccc2c(c1)[C@](C)(C#N)COC2)c1cc2nc(-c3ccccc3)ccc2cn1 for me?
Result :: > 1000 nM

###

target-entity: UniProt:P51532
test-name: ATPase catalytic activity assay (ADP-Glo), BRG-1
stated-conditions: 1 h, read-out: BRG1 Max % Inhibition, ADP-Glo, 30 nM BRG-1, 400 μM ATP
property: Emax (%)

A = Cc1nn(C2COC2)cc1-c1ccc2cnc(CNC(=O)c3ccc4c(c3)[C@](C)(C#N)COC4)cc2n1
B = C[C@@]1(C#N)COCc2ccc(C(=O)NCc3cc4nc(-c5ccnc([C@H]6CC6(F)F)n5)ccc4cn3)cc21
Query :: When the recorded Emax values are compared, which is smaller: that of A or that of B ? Return value: the label identifying the chosen record.
Result :: A
(A: 41%, B: 79%)

###

target-entity: BRG-1 (Homo sapiens, UniProt P51532)
test-name: ATPase catalytic activity assay (ADP-Glo), BRG-1
stated-conditions: 1 h, read-out: BRG1 Max % Inhibition, ADP-Glo, 30 nM BRG-1, 400 μM ATP
property: Emax (%)

Worked examples, 5 compounds total:
1. C[C@@]1(C#N)COCc2ccc(C(=O)NCc3cc4nc(-c5cncc(N6CCC6)n5)ccc4cn3)cc21 [Compound 497] : 97
2. C[C@@]1(F)COCc2ccc(C(=O)NCc3cc4nc(-c5cccc(N6CCCC6=O)n5)ccc4nn3)cc21 [Compound 239] : 93
3. COc1cc(-c2ccc3cnc(CNC(=O)c4ccc5c(c4)[C@](C)(C#N)COC5)cc3n2)nc(N2CCC2)n1 [Compound 442] : 75
4. C[C@@]1(F)COCc2ccc(C(=O)NCc3cc4nc(-c5cncc(N6CCC6)n5)ccc4cn3)cc21 [Compound 401] : 91
5. C[C@@]1(F)COCc2ncc(C(=O)NCc3cc4nc(-c5ccnc(N6CCC6)n5)cnc4cn3)cc21 [Compound 183] : 82

I = C[C@@]1(C#N)COCc2ccc(C(=O)NCc3cc4nc(-c5ccn6ncc(C(F)F)c6n5)ccc4cn3)cc21 [Compound 309]
II = Cn1cc(-c2ccc3cnc(CNC(=O)c4ccc5c(c4)[C@](C)(C#N)COC5)cc3n2)cn1 [Compound 104]
Query :: When the recorded Emax values are compared, which is smaller: that of I or that of II ? Return value: the label identifying the chosen record.
Result :: II

###

target-entity: BRG-1 (Homo sapiens, UniProt P51532)
test-name: ATPase catalytic activity assay (ADP-Glo), BRG-1
stated-conditions: 1 h, read-out: BRG1 Max % Inhibition, ADP-Glo, 30 nM BRG-1, 400 μM ATP
property: Emax (%)

1) C[C@@]1(F)COCc2ccc(C(=O)NCc3cc4nc(-c5cccc(N6CCCC6=O)n5)cnc4cn3)cc21 : 89
2) C[C@@]1(C#N)COCc2ccc(C(=O)NCc3cc4nc(-c5ccnc(N6CC7(COC7)C6)n5)ccc4cn3)cc21 : 91
3) O=C(NCc1cc2nc(-c3cncc(C4CC4)n3)ccc2cn1)c1cc(F)c2c(c1)[C@](F)(C(F)F)COC2 : 92
4) COc1ccc([C@H]2C[C@H](c3ccnc(CNC(=O)c4ccc5c(c4)[C@](C)(C#N)COC5)c3)C2)cc1 : 91
